- System: Streptococcus pneumoniae
- method_notes: In vitro antibacterial activity against Streptococcus pneumoniae type III
- Type: functional
measured_property: MIC (µg/mL)

Observe how each entry below is paired with its result.
[[record]]
compound = "CN1CCN(c2cc3c(cc2F)c(=O)c(C(=O)O)cn3C)CC1"
test_target = "Streptococcus pneumoniae"
units_of_measure = "µg/mL"
quantitative_readout = 6.25

[[record]]
compound = "NC1CCN(c2cc3c(cc2F)c(=O)c(C(=O)O)cn3C(F)(F)F)C1 (centres undefined)"
test_target = "Streptococcus pneumoniae"
units_of_measure = "µg/mL"
quantitative_readout = 12.5


a = CN1CCN(c2cc3c(cc2F)c(=O)c(C(=O)O)cn3C2CC2)CC1
b = CCn1cc(C(=O)O)c(=O)c2cc(F)c(N3CCN(C)CC3)cc21
Among a and b , which shows a numerically higher MIC result? Return value: the label identifying the chosen record. b

1 = CN1CCN(c2cc3c(cc2F)c(=O)c(C(=O)O)cn3C(F)(F)F)CC1.Cl
2 = CN1CCN(c2cc3c(cc2F)c(=O)c(C(=O)O)cn3C(C)(C)C)CC1
For the pair 1 and 2 , which member has the lower MIC number? Return value: the label identifying the chosen record. 2
(2: 0.78 µg/mL, 1: 3.13 µg/mL)

a = CN1CCN(c2cc3c(cc2F)c(=O)c(C(=O)O)cn3CCF)CC1
b = CN1CCN(c2cc3c(cc2F)c(=O)c(C(=O)O)cn3-c2ccc(F)cc2F)CC1
Among a and b , which shows a numerically higher MIC result? Return value: the label identifying the chosen record. a
(a: 1.56 µg/mL, b: 0.39 µg/mL)

Provenance of the data: ChEMBL document CHEMBL1144355
